The reported measurements were obtained from patent US20260258083A1.

- experimental_system: T1, DLL3xCD3 TCE SEQ ID NO 104
- T1 construct: Single-chain T cell engager; also called DLL3×CD3ε TCE
- assay_details: KinExA equilibrium in solution, KD relative to peptide concentration, TCE 250 pM
Side-chain parts run from the residue outwards. [ ]: non-standard residue; d: D form. thiosuccinimide (maleimide) = thiosuccinimide linkage from the Cys thiol to the maleimide of 4-arm 5 kDa PEG; thiosuccinimide = thiosuccinimide linkage joining the Cys side chain to 4-arm 5 kDa PEG; pGlu = O=C1CC[C@@H](C(=O)O)N1
quantity: pKd
pKd here is simply -log10 of the concentration when that concentration is written in mol/L.

[[record]]
binder = "[pGlu]DGNEELKGC([thiosuccinimide-4‑arm PEG 20 kDa])-NH2 (also: 4-arm PEG conjugate, number of peptide copies not given here) [79674-1]"
assay_value = 10.43

[[record]]
binder = "[pGlu]DGNEELKGC([thiosuccinimide-4‑arm PEG 5 kDa])-NH2 (also: 4-arm PEG conjugate, number of peptide copies not given here) [79675-1]"
assay_value = 10.21

[[record]]
binder = "[pGlu]DGEEELKGC([thiosuccinimide (maleimide)-4‑arm PEG 5 kDa])-NH2 (also: 4-arm PEG conjugate, number of peptide copies not given here, TCE masking molecule) [79677-1]"
assay_value = 8.33


# return recorded pKd for input [pGlu]DGEEELKGC([thiosuccinimide-4‑arm PEG 20 kDa])-NH2 (also: 4-arm PEG conjugate, number of peptide copies not given here, TCE masking molecule) [79676-1]
7.89
